Measured values drawn from patent US8828988B2 for this set.

- System: E. coli DH10B(pBAD-tetK), expressing tet(K)
- Experiment: MIC against recombinant E. coli expressing tet(K)
- Type: cell-based
- Reported conditions: Escherichia coli, read-out: MIC, Uninduced
# reported MIC; entries follow
Please state the figure in µg/mL; there is no need to write the unit.

| Compound | MIC, µg/mL |
| --- | --- |
| CO/N=C(\C(=O)N[C@@H]1C(=O)N2C(C(=O)O)=C(CSc3nc(=O)c(=O)[nH]n3C)CS[C@H]12)c1csc(N)n1 [Ceftriaxone, ceftriaxone, reference compound] | 0.125 |

Look up MIC: NCC[C@H](O)C(=O)N[C@@H]1C[C@H](N)[C@@H](O[C@H]2O[C@H](CN)[C@@H](O)[C@H](O)[C@H]2O)[C@H](O)[C@H]1O[C@H]1O[C@H](CO)[C@@H](O)[C@H](N)[C@H]1O [Amikacin, amikacin, reference compound]
8

Please answer likewise for CN(C)CC(C)(C)CNc1nc(Cl)c2c(c1O)C(=O)C1=C(O)[C@]3(O)C(=O)C(C(N)=O)=C(O)[C@@H](N(C)C)[C@@H]3C[C@@H]1C2 [Compound 151]
1

Please answer likewise for CN(C)[C@@H]1C(O)=C(C(N)=O)C(=O)[C@@]2(O)C(O)=C3C(=O)c4c(O)c(NCC(F)(F)F)nc(Cl)c4C[C@H]3C[C@@H]12 [Compound 124]
8

---

- Experiment: in vivo
- Reported conditions: Sprague-Dawley, rat, po, 10 mg/kg
Observed property: AUC(0-t) (ng·h/mL)
Please state the figure in ng·h/mL; there is no need to write the unit.

| Compound | AUC(0-t) [ng·h/mL] |
| --- | --- |
| CN(C)CC(C)(C)CNc1nc(Cl)c2c(c1O)C(=O)C1=C(O)[C@]3(O)C(=O)C(C(N)=O)=C(O)[C@@H](N(C)C)[C@@H]3C[C@@H]1C2 [Compound 151] | 395 |

Okay, next one:
Look up AUC(0-t): CN(C)c1ncc(O)c2c1C[C@H]1C[C@H]3[C@H](N(C)C)C(O)=C(C(N)=O)C(=O)[C@@]3(O)C(O)=C1C2=O [Compound 109]
1250

---

# reported MIC; entries follow
- System: Streptococcus pneumoniae SP106, ATCC 49619
- Experiment: MIC assay, SP106
- Format: cell-based
- Reported conditions: ATCC49619, Table 9, read-out: MIC S. pneum ATCC 49619
Please state the figure in µg/mL; there is no need to write the unit.

| Molecule | MIC / µg/mL |
| --- | --- |
| C[C@H]1c2cccc(O)c2C(=O)C2=C(O)[C@]3(O)C(=O)C(C(N)=O)=C(O)[C@@H](N(C)C)[C@@H]3[C@@H](O)[C@@H]21 [Doxycycline, doxycycline, reference compound] | 0.25 |
| CN(C)CC(C)(C)CNc1nc(Cl)c2c(c1O)C(=O)C1=C(O)[C@]3(O)C(=O)C(C(N)=O)=C(O)[C@@H](N(C)C)[C@@H]3C[C@@H]1C2 | 0.016 |
| CN(C)c1ncc(O)c2c1C[C@H]1C[C@H]3[C@H](N(C)C)C(O)=C(C(N)=O)C(=O)[C@@]3(O)C(O)=C1C2=O | 0.03 |

Look up MIC: CN(C)[C@@H]1C(O)=C(C(N)=O)C(=O)[C@@]2(O)C(O)=C3C(=O)c4c(O)cccc4[C@@](C)(O)[C@H]3C[C@@H]12 [Tetracycline, tetracycline, reference compound]
0.25

---

# reported MIC; entries follow
- Test system: Streptococcus pneumoniae SP106, ATCC 49619
- Experiment: MIC assay, SP106
- Format: cell-based
- Reported conditions: ATCC49619, Table 8, read-out: MIC S. pneumoniae ATCC 49619
Please state the figure in µg/mL; there is no need to write the unit.

Look up MIC: CN(C)[C@@H]1C(O)=C(C(N)=O)C(=O)[C@@]2(O)C(O)=C3C(=O)c4c(O)cnc(Cl)c4C[C@H]3C[C@@H]12
1

Please answer likewise for C[C@H]1c2cccc(O)c2C(=O)C2=C(O)[C@]3(O)C(=O)C(C(N)=O)=C(O)[C@@H](N(C)C)[C@@H]3[C@@H](O)[C@@H]21 [Doxycycline, doxycycline, reference compound]
0.06

Please answer likewise for CN(C)CC(C)(C)CNc1nc(F)c2c(c1O)C(=O)C1=C(O)[C@]3(O)C(=O)C(C(N)=O)=C(O)[C@@H](N(C)C)[C@@H]3C[C@@H]1C2
0.5

Please answer likewise for CN(C)CC(C)(C)CNc1nc(Cl)c2c(c1O)C(=O)C1=C(O)[C@]3(O)C(=O)C(C(N)=O)=C(O)[C@@H](N(C)C)[C@@H]3C[C@@H]1C2
0.063

---

- Tested on: Escherichia coli EC107, ATCC 25922
- Experiment: MIC assay, EC107
- Assay type: cell-based
- Reported conditions: ATCC25922, Table 8, read-out: MIC E. coli ATCC 25922
# reported MIC; entries follow
Please state the figure in µg/mL; there is no need to write the unit.

| Compound | Meas value |
| --- | --- |
| CN(C)[C@@H]1C(O)=C(C(N)=O)C(=O)[C@@]2(O)C(O)=C3C(=O)c4c(O)cnc(Cl)c4C[C@H]3C[C@@H]12 | 2 |
| CN(C)c1ccc(O)c2c1C[C@H]1C[C@H]3[C@H](N(C)C)C(O)=C(C(N)=O)C(=O)[C@@]3(O)C(O)=C1C2=O [minocycline, reference compound] | 0.5 |

Okay, next one:
Look up MIC: CN(C)[C@@H]1C(O)=C(C(N)=O)C(=O)[C@@]2(O)C(O)=C3C(=O)c4c(O)cnc(F)c4C[C@H]3C[C@@H]12
0.25

---

- Experiment: in vivo
- Reported conditions: Sprague-Dawley, rat, po, 10 mg/kg
# reported Cmax; entries follow
Please state the figure in ng/mL; there is no need to write the unit.

| Compound | Meas value |
| --- | --- |
| CN(C)c1ncc(O)c2c1C[C@H]1C[C@H]3[C@H](N(C)C)C(O)=C(C(N)=O)C(=O)[C@@]3(O)C(O)=C1C2=O [Compound 109] | 192 |

Okay, next one:
Look up Cmax: CN(C)CC(C)(C)CNc1nc(Cl)c2c(c1O)C(=O)C1=C(O)[C@]3(O)C(=O)C(C(N)=O)=C(O)[C@@H](N(C)C)[C@@H]3C[C@@H]1C2 [Compound 151]
69.8

---

- Experiment: in vivo
- Reported conditions: Sprague-Dawley, rat, po, 10 mg/kg
Observed property: Tmax (h)
Please state the figure in h; there is no need to write the unit.

| Smiles | Tmax [h] |
| --- | --- |
| CN(C)CC(C)(C)CNc1nc(Cl)c2c(c1O)C(=O)C1=C(O)[C@]3(O)C(=O)C(C(N)=O)=C(O)[C@@H](N(C)C)[C@@H]3C[C@@H]1C2 | 0.83 |

Okay, next one:
Look up Tmax: CN(C)c1ncc(O)c2c1C[C@H]1C[C@H]3[C@H](N(C)C)C(O)=C(C(N)=O)C(=O)[C@@]3(O)C(O)=C1C2=O
1.4

---

- Experiment: in vivo
- Reported conditions: Sprague-Dawley, rat, iv, 1 mg/kg
# reported Cmax; entries follow

| Smiles | Meas value |
| --- | --- |
| CN(C)c1ncc(O)c2c1C[C@H]1C[C@H]3[C@H](N(C)C)C(O)=C(C(N)=O)C(=O)[C@@]3(O)C(O)=C1C2=O | 603 ng/mL |

Okay, next one:
Look up Cmax: CN(C)CC(C)(C)CNc1nc(Cl)c2c(c1O)C(=O)C1=C(O)[C@]3(O)C(=O)C(C(N)=O)=C(O)[C@@H](N(C)C)[C@@H]3C[C@@H]1C2
2400 ng/mL

---

- Tested on: Streptococcus pneumoniae SP106, ATCC 49619
- Experiment: MIC assay, SP106
- Format: cell-based
- Reported conditions: ATCC49619, Table 8, read-out: MIC S. pneumoniae ATCC 49619
# reported MIC; entries follow
Please state the figure in µg/mL; there is no need to write the unit.

Sample answers from the record:
| Molecule | Output unit | MIC |
| --- | --- | --- |
| CN(C)[C@@H]1C(O)=C(C(N)=O)C(=O)[C@@]2(O)C(O)=C3C(=O)c4c(O)cccc4[C@@](C)(O)[C@H]3C[C@@H]12 [Tetracycline, tetracycline, reference compound] | µg/mL | 0.063 |
| CN(C)c1ncc(O)c2c1C[C@H]1C[C@H]3[C@H](N(C)C)C(O)=C(C(N)=O)C(=O)[C@@]3(O)C(O)=C1C2=O [Compound 109] | µg/mL | 0.031 |
| CN(C)[C@@H]1C(O)=C(C(N)=O)C(=O)[C@@]2(O)C(O)=C3C(=O)c4c(O)c(NCC(C)(C)CN5CCCC5)nc(Cl)c4C[C@H]3C[C@@H]12 [Compound 108] | µg/mL | 0.031 |

Okay, next one:
Look up MIC: CN(C)[C@@H]1C(O)=C(C(N)=O)C(=O)[C@@]2(O)C(O)=C3C(=O)c4c(O)cnc(F)c4C[C@H]3C[C@@H]12 [Compound 144]
0.016
